reported-metric: melting point

Use these answered entries as a reference point.
>>> result("O=C(NC(Cc1c[nH]c2ccccc12)C(=O)O)c1ccc(F)cc1 (centres undefined)")
"95 to 98 °C"
>>> result("Nc1cccc(S(=O)(=O)N2CCCC2)c1")
"156 to 158 °C"
>>> result("N#Cc1cc(C(=O)O)c(N)[nH]c1=O")
"250 to 252 °C"
>>> result("Cc1n[nH]c(N)c1I")
"102 to 104 °C"

Per the record, OCCN1CCN(c2ccc(CO)nn2)CC1 has melting point of 129 to 131 °C

Per the record, Cc1cnc(C#N)nc1 has melting point of 67 to 69 °C

Per the record, Cc1ccc(C)c(-n2nnnc2SCC(=O)O)c1 has melting point of 157 to 159 °C

Per the record, COC(=O)CS(N)(=O)=O has melting point of 57 to 59 °C

Per the record, Cc1cc([N+](=O)[O-])c(Cl)cc1F has melting point of 43 to 45 °C

Per the record, O=C(O)c1ccc(=O)n(-c2ccccc2)n1 has melting point of 208 to 210 °C

Per the record, Cc1c(N)cccc1C(=O)N1CCSCC1 has melting point of 155 to 157 °C

Per the record, CCOC(=O)c1oc(N)nc1C has melting point of 219 to 221 °C

Per the record, COCCOc1ccc(CC#N)cc1 has melting point of 49 to 51 °C

Per the record, COc1ccc(N)cc1OCC(=O)NC1CC1 has melting point of 87 to 89 °C

// data source = a melting point compilation (Tetko et al.)
